- assay_system: Ubiquitin carboxyl-terminal hydrolase 8 (Homo sapiens) (UniProt P40818)
- Sequence (P40818 whole entry, looked up): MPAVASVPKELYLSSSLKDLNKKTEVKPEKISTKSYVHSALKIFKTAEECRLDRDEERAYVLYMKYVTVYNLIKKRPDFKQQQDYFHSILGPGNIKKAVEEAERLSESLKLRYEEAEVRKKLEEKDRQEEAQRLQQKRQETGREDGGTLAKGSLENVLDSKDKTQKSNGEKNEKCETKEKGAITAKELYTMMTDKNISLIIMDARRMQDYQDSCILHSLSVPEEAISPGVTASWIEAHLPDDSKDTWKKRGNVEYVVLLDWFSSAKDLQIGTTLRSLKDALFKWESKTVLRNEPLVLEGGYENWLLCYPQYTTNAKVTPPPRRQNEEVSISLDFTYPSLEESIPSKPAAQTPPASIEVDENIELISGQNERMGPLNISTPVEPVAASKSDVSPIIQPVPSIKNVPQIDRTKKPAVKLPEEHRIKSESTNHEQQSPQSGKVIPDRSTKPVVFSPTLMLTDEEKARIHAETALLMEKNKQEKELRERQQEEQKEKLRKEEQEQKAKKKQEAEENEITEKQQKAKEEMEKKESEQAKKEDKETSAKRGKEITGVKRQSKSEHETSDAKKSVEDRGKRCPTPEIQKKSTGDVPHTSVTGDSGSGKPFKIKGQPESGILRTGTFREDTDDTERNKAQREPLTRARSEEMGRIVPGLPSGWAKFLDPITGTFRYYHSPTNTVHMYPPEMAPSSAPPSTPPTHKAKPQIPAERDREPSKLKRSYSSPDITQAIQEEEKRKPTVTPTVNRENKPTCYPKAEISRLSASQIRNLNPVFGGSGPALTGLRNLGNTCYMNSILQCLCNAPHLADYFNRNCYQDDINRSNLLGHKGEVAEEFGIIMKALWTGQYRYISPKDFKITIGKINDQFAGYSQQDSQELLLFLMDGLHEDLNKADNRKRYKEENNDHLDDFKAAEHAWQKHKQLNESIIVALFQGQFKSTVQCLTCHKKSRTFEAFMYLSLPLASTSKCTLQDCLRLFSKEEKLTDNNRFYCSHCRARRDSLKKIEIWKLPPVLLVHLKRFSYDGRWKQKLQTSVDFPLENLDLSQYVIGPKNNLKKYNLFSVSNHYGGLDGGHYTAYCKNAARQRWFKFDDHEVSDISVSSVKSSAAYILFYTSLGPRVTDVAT
- method_summary: Ubiquitin-specific protease 8 inhibitors, concentration-effect, biochemical, validation of initial actives (AID 1645862);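 note: potency reflects inhibition of USP8 cleavage of a ubiquitin rhodamine substrate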
- condition_details: recombinant USP8 deubiquitinase activity assay
Active and inactive are the calls of the source. The rule behind the calls is not given here.
Outcomes: active, inactive

>>> class_name("COc1ccc(NC(=O)[C@H](C)NC(=O)c2cc3c(OC)cccc3[nH]2)cc1Cl")
"inactive"
>>> class_name("O=C(CC1C(=O)Nc2nc3ccccc3n21)Nc1cccc2ccccc12 (stereo not given)")
"inactive"
>>> class_name("N#Cc1ccc(NC(=O)Nc2cccn(Cc3c(F)cccc3Cl)c2=O)cc1")
"inactive"
>>> class_name("COc1ccccc1C(=O)Nc1ccc(Oc2ncnc3sc(-c4ccccc4)cc23)cc1")
"inactive"
>>> class_name("O=C(CN1CC=C(c2ccccc2)CC1)Nc1ccc(S(=O)(=O)N2CCOCC2)cc1")
"inactive"
>>> class_name("CSc1cccc(NC(=O)C2C3C=CC4(O3)C2C(=O)N(CCc2ccccc2)C4C(=O)NC2CCCCC2)c1 (stereo not given)")
"inactive"
>>> class_name("Cc1nc(SCC(=O)NC(C)c2ccccc2)c2oc3ccccc3c2n1 (stereo not given)")
"inactive"
>>> class_name("O=C(Nc1ccncc1)c1cn(Cc2ccccc2)cc2c(=O)n(-c3ccccc3)nc1-2")
"inactive"
>>> class_name("COc1ccccc1CNC(=O)CCCCn1c(=O)c2ccccc2n(CC(=O)Nc2ccc(C)cc2C)c1=O")
"inactive"
>>> class_name("CNC(=O)Cc1ccc(NC(=O)/C=C/c2cn(-c3ccccc3)nc2-c2ccc(F)cc2)cc1")
"inactive"
>>> class_name("O=C(Nc1cccc(Cl)c1)c1ncn2c1CNS(=O)(=O)c1ccccc1-2")
"inactive"
>>> class_name("COc1c(C)c(OC(=O)c2c(C)c(C)c(OC(=O)c3c(C)c(C)c(O)c(C)c3O)c(C)c2OC)c(C)c(C)c1C(=O)O")
"inactive"
>>> class_name("Cc1ccc(NC(=O)Nc2ccc(C)n(CC(=O)Nc3ccc(C)cc3C)c2=O)cc1")
"active"
>>> class_name("CC(=O)Nc1cccc(-c2cnc3sc(NC4CCCCC4)nn23)c1")
"inactive"
>>> class_name("O=C(COc1ccc(N2CC(C(=O)NCc3ccc4c(c3)OCO4)CC2=O)cc1)Nc1ccc(Cl)cc1 (stereo not given)")
"inactive"
>>> class_name("COc1ccccc1CN1CCC(c2cc(=O)[nH]c(-c3cccnc3)n2)CC1")
"inactive"
>>> class_name("Cc1ccc2c(c1)c(=O)c(C(=O)c1ccccc1)cn2CC(=O)Nc1ccccc1")
"active"
>>> class_name("CCCn1c(=O)c(-c2ccc(C(=O)NCc3ccc(OC)cc3)cc2)nc2cccnc21")
"inactive"
>>> class_name("COc1ccc(-n2ccc(=O)c(-c3nc(-c4ccc(F)cc4)no3)n2)cc1")
"inactive"
>>> class_name("Cc1ccc(-c2cc(=O)n(CC(=O)Nc3ccc(C(C)C)cc3)cn2)cc1")
"inactive"

Where these numbers come from: PubChem BioAssay AID1645862
